Let's look at some compounds and their measured Kcat.
molecular target: Pantoea dispersa AlbD variant AlbD-M1, Ser40Gly (A118G), FIG. 3 (Pantoea dispersa, UniProt O07822, S40G); assay: Enzyme kinetics of AlbD-M1 with p-nitrophenyl compounds; assay type: biochemical, Pantoea dispersa SB1043; details: PBS pH 7.4, room temperature, O.D405, means of triplicate
Sequence (O07822 entry or part of it S40G): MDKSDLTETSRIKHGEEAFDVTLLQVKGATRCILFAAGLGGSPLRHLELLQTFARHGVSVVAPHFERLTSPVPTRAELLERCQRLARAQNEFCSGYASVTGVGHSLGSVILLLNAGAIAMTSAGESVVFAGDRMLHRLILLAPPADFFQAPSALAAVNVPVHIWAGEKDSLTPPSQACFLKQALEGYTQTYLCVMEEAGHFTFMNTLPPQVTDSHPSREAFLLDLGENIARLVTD

Consider the following illustrative entries.
CCCCCC(=O)Oc1ccc([N+](=O)[O-])cc1 [p-nitrophenyl caproate] | 4.2 × 10^−1 S^−1
CCC(=O)Oc1ccc([N+](=O)[O-])cc1 [p-nitrophenol propionate, p-nitrophenyl propionate] | 2.7 × 10^−1 S^−1
CCCC(=O)Oc1ccc([N+](=O)[O-])cc1 [p-nitrophenyl butyrate] | 2.5 × 10^−1 S^−1
CC(=O)Oc1ccc([N+](=O)[O-])cc1 [p-nitrophenol acetate, p-nitrophenyl acetate] | 9.1 × 10^−2 S^−1

// switching to the query compound
Which Kcat is reported for this compound? CCCCC(=O)Oc1ccc([N+](=O)[O-])cc1 [p-nitrophenyl velerate, p-nitrophenyl valerate]
8.8 × 10^−1 S^−1
